- system: MAGE-A11:PCF11 (Homo sapiens (Human))
- Sequence (P43364 218-429): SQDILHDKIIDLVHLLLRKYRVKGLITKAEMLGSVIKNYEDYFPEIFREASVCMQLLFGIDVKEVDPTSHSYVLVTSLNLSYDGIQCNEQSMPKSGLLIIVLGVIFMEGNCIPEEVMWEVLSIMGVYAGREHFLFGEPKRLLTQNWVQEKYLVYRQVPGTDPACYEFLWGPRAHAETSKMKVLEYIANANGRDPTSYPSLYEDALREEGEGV
- assay name: TR-FRET single point screening at 15 μM
- Format: binding
- Design: unit not given here
- applied conditions: single point TR-FRET screening at 15 μM against MAGE-A11:PCF11
Quick reference: TR-FRET signal of the listed items.

# smiles string, TR-FRET signal
records = [
    ("CCCN(CCCCNc1ccnc2cc(Cl)ccc12)Cc1c[nH]c2ccccc12", "−3.378"),
    ("O=S(=O)(c1ccc(F)cc1)c1cnc2ccc(Cl)cc2c1N1CCN(c2ccc(F)cc2)CC1", "−4.205"),
    ("CCCN(CCCNc1c2ccc(Cl)cc2nc2ccc(OC)cc12)Cc1ccc[nH]1", "−271"),
    ("CCN1CCN(c2c(S(=O)(=O)c3ccc(C)cc3)cnc3ccc(C)cc23)CC1", 0.2213),
    ("O=[N+]([O-])c1ccc(CN2CCC(Nc3ccnc4cc(Cl)ccc34)CC2)cc1", "−4.954"),
    ("CCCN(CCCNc1c2ccc(Cl)cc2nc2ccc(OC)cc12)CC1CC1", "−271.4"),
    ("COc1cccc(CN(CCCCNc2ccnc3cc(Cl)ccc23)Cc2ccccc2)c1O", 7.676),
    ("COc1ccc(N2CCN(c3c(S(=O)(=O)c4ccc(C)c(C)c4)cnc4ccc(F)cc34)CC2)cc1", "−13.26"),
    ("CCN1CCN(c2c(S(=O)(=O)c3ccc(Cl)cc3)cnc3cc(OC)c(OC)cc23)CC1", "−6.809"),
    ("CCCN(CCCNc1c2ccc(Cl)cc2nc2ccc(OC)cc12)Cc1cnn(C)c1", "−276.6"),
    ("CN(C)CC(=O)Nc1c2c(nc3ccccc13)N(C)CC2", 17.04),
    ("Cc1cc(NC(=O)CN2CCN(C)CC2)c2ccccc2n1", 4.647),
    ("COc1ccc2nc3cc(Cl)ccc3c(NCCCNCc3ccccc3C(F)(F)F)c2c1", "−169.5"),
    ("CCc1ccc2ncc(S(=O)(=O)c3ccc(C)c(C)c3)c(N3CCN(C)CC3)c2c1", 2.973),
    ("CCCN(CCCNc1c2ccc(Cl)cc2nc2ccc(OC)cc12)Cc1nccs1", "−117.5"),
    ("CCCN(CCCNc1c2ccc(Cl)cc2nc2ccc(OC)cc12)Cc1nccn1C", "−159.9"),
    ("CCCN(CCCNc1c2ccc(Cl)cc2nc2ccc(OC)cc12)Cc1ccc(C(=O)OC)cc1", "−118.6"),
    ("Cn1ccnc1CN(CCCCNc1ccnc2cc(Cl)ccc12)Cc1ccccc1", 5.888),
    ("COc1cccc(F)c1CN1CCC(Nc2ccnc3cc(Cl)ccc23)CC1", 10.5),
    ("Clc1ccc2c(NCCCCN(Cc3ccccc3)Cc3ccc[nH]3)ccnc2c1", 28.28),
    ("CCc1nc2ccccc2c(NC(=O)CN2CCN(c3ccccc3)CC2)c1C", 6.894),
    ("O=C(O)c1ccccc1CN1CCC(Nc2ccnc3cc(Cl)ccc23)CC1", "−2.194"),
    ("CCCN(CCCNc1c2ccc(Cl)cc2nc2ccc(OC)cc12)Cc1cn(C(C)=O)c2ccccc12", "−192.4"),
    ("Clc1ccc2c(NCCCCN(Cc3ccccc3)CC3CC3)ccnc2c1", 18.34),
    ("Cc1ccc(S(=O)(=O)c2cnc3ccc(Cl)cc3c2N2CCN(c3ccccc3)CC2)cc1", "−3.321"),
    ("COc1cc2ncc(S(=O)(=O)c3ccc(Cl)cc3)c(N3CCN(C)CC3)c2cc1OC", 4.674),
    ("Clc1ccc2c(NCCCCN(CCCc3ccccc3)Cc3ccccc3)ccnc2c1", 27.82),
    ("O=[N+]([O-])c1ccccc1CN1CCC(Nc2ccnc3cc(Cl)ccc23)CC1", "−2.026"),
    ("Cc1ccc(S(=O)(=O)c2cnc3ccccc3c2N2CCN(c3ccc(F)cc3)CC2)cc1C", "−54.86"),
    ("Fc1ccc(CN(CCCCNc2ccnc3cc(Cl)ccc23)Cc2ccccc2)cc1", 30.2),
    ("Cc1cccc(N2CCN(c3c(S(=O)(=O)c4ccccc4)cnc4ccccc34)CC2)c1C", "−13.13"),
    ("CCc1ccc(S(=O)(=O)c2cnc3ccccc3c2N2CCN(c3ccccc3F)CC2)cc1", "−56.58"),
    ("CN(C)c1ccc(CN(CCCCNc2ccnc3cc(Cl)ccc23)Cc2ccccc2)cc1", 21.52),
    ("CCOc1ccc2ncc(C(=O)c3ccc(OC)cc3)c(N3CCN(CC)CC3)c2c1", "−9.084"),
]
